system: ACE-I enzyme (Homo sapiens, UniProt P12821)
Sequence (P12821 30-1306): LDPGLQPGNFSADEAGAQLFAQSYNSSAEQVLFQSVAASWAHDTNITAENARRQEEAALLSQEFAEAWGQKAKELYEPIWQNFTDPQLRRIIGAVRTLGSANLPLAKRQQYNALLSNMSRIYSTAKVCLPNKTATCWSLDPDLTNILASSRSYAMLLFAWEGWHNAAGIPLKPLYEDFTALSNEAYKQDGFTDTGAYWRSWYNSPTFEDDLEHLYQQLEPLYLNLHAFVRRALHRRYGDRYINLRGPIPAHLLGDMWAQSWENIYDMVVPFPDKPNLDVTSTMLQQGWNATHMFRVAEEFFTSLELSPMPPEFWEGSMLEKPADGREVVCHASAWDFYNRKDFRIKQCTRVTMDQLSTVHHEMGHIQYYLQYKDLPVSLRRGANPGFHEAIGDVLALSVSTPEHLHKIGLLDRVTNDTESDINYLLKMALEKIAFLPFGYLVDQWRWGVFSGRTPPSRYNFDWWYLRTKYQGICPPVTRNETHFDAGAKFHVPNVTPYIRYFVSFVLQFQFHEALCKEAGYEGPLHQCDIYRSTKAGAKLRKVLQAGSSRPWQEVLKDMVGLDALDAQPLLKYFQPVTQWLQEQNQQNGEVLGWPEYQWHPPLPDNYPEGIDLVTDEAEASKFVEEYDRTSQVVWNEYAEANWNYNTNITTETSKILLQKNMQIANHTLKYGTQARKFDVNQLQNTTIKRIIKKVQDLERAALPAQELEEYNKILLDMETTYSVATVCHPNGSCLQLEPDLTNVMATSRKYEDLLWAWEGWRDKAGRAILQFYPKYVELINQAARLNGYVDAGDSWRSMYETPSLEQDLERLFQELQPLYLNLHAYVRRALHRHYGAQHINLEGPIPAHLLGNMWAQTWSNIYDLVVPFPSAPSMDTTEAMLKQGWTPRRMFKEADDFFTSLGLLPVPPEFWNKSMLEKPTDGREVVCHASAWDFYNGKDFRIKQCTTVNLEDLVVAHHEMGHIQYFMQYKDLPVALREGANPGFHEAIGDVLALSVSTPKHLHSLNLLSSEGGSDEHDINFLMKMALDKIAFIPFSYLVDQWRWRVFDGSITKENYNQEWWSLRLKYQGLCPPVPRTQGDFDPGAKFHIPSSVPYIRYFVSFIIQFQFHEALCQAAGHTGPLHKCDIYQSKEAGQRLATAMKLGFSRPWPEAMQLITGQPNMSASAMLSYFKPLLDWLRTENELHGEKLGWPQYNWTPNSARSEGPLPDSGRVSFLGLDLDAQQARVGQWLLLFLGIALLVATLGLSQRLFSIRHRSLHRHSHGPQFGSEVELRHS
test: ACE-I activity in vitro using FAPGG as substrate
condition.context: peptides purified by reverse-phase HPLC from 10 kDa UF permeate of Example 1 hydrolysate
Peptide text beside a SMILES is read from it.
test.readout: pIC50
Give only the number. pIC50 is defined as minus log10 of concentration in molar units.

Indicate its recorded pIC50; the molecule in question is CSCC[C@H](N)C(=O)N[C@@H](CCCCN)C(=O)NCC(=O)O [Peptide 2, MKG] (H-Met-Lys-Gly-OH; N-terminus and C-terminus assumed) 4.16

Others:
Indicate its recorded pIC50; the molecule in question is C[C@H](NC(=O)[C@@H](N)CO)C(=O)N1CCC[C@H]1C(=O)O [Peptide 1, SAP] (H-Ser-Ala-Pro-OH; N-terminus and C-terminus assumed) 4.09
